testMethodNotes: Human liver microsomal stability of compound in microsomal protein, PBS buffer pH 7.4, NADPH, glucose-6-phosphate and glucose-6-phosphate dehydrogenase media. Aliquotes were taken at 5 time points and after stopping the reaction, supernatants were analyzed using HPLC coupled with a tandem mass spectrometer. The elimination constant, half-life, and intrinsic clearance are determined as results using linear regression analysis.
Assay type: ADME, microsomes, Microsome
conditionLabel: liver microsomes

>  <entrySmiles>
N#CCCNC(=O)[C@H](Nc1ccc2c(c1)CNC2)c1cc(Cl)cc(C2CC2)c1

>  <half-life>
> 2.89 h

$$$$
>  <entrySmiles>
NCCc1ccc(NC(=O)c2cc(Cl)cc(NC(=O)OCc3ccccc3)c2)cc1

>  <half-life>
1.59 h

$$$$
>  <entrySmiles>
Cn1c(=O)[nH]c2c(C(=O)Nc3ccc4c(c3)CNC4)cc(Br)cc21

>  <half-life>
> 2.89 h

$$$$
>  <entrySmiles>
NCc1cccc(NC(=O)[C@@H](NC(=O)OCc2ccccc2)C(C2CCC2)C2CCC2)c1

>  <half-life>
2.21 h

$$$$
>  <entrySmiles>
CC(C)c1nc2c(C(=O)Nc3cccc(CN)c3)cccc2[nH]1

>  <half-life>
> 2.89 h

$$$$
>  <entrySmiles>
NCc1cccc(NC(=O)[C@@H](NC(=O)OCc2ccccc2)c2ccc(OCc3ccccc3)cc2)c1

>  <half-life>
2.48 h

$$$$
>  <entrySmiles>
O=C(NCC(F)F)[C@H](Nc1ccc2c(c1)CNC2)c1cc(Br)cc2nc[nH]c12

>  <half-life>
> 2.89 h

$$$$
>  <entrySmiles>
CNC(=O)[C@H](Nc1ccc(-c2nnn[nH]2)cc1)c1cc(Cl)cc(C2CC2)c1

>  <half-life>
> 2.89 h

$$$$
>  <entrySmiles>
CNC(=O)[C@H](Nc1cc(CN)cc(-c2nn[nH]n2)c1)c1cc(Cl)cc(C2CC2)c1

>  <half-life>
> 2.89 h

$$$$
>  <entrySmiles>
CNC(=O)c1cc(Cl)ccc1NS(=O)(=O)c1ccc(Oc2ccccc2Cl)cc1

>  <half-life>
0.263 h

$$$$
>  <entrySmiles>
O=C(Nc1cc(Cl)cc(C(=O)Nc2cccc(-c3nnn[nH]3)c2)c1)OCc1ccccc1

>  <half-life>
> 2.89 h

$$$$
>  <entrySmiles>
O=C(Nc1cc(Cl)cc(C(=O)Nc2n[nH]c3c2CNC3)c1)OCc1ccccc1

>  <half-life>
> 2.89 h

$$$$
>  <entrySmiles>
O=C(O)c1cc(Cl)ccc1S(=O)(=O)NC1CCN(c2nc(C3CC3)cc(C(F)(F)F)n2)CC1

>  <half-life>
1.06 h

$$$$
>  <entrySmiles>
O=C(Nc1cc2c(c(-c3c[nH]c(=O)c(F)c3)c1)CNC2)c1cc(F)cc2[nH]ncc12

>  <half-life>
> 2.89 h

$$$$
>  <entrySmiles>
Cn1ncc2c(C(=O)Nc3ccc4c(c3)CNC4)cc(Br)cc21

>  <half-life>
> 2.89 h

$$$$
>  <entrySmiles>
OCC#C[C@H](Nc1ccc2c(c1)CNC2)c1cc(Cl)cc2[nH]ncc12

>  <half-life>
> 2.89 h

$$$$
>  <entrySmiles>
O=C(Nc1cc2c(c(C3=CCOCC3)c1)CNC2)c1cc(F)cc2[nH]ncc12

>  <half-life>
> 2.89 h

$$$$
>  <entrySmiles>
COc1cc(Cl)cc([C@H](Nc2ccc3c(c2)CNC3)C(=O)NCC(F)F)c1

>  <half-life>
> 2.89 h

$$$$
>  <entrySmiles>
Clc1ccc2[nH]cc(Cc3ccc(-c4nn[nH]n4)cc3)c2c1

>  <half-life>
> 2.89 h

$$$$
>  <entrySmiles>
Nc1ccncc1-c1cc(F)cc(C(=O)Nc2ccc3c(c2)CNC3)c1

>  <half-life>
> 2.89 h

$$$$
>  <entrySmiles>
O=C(Nc1ccc2c(c1)CNC2)c1cc(Cl)cc2cn[nH]c12

>  <half-life>
> 2.89 h

$$$$
>  <entrySmiles>
NCc1cc(C(=O)O)cc([C@@H]2C[C@H]2c2cc(Cl)cc(NC(=O)OCc3ccccc3)c2)c1

>  <half-life>
> 2.89 h

$$$$
>  <entrySmiles>
NCc1cccc(NC(=O)c2cc(Cl)cc(CN)c2)c1

>  <half-life>
1.33 h

$$$$
